koff values for the binders below.
- targetOrSystem: T1, hErbB3.hFc (soluble dimeric human ErbB3 extracellular domain fused to human Fc) (human)
- T1 construct: called dimeric
- T1 sequence (chain, as listed by the source limits assumed): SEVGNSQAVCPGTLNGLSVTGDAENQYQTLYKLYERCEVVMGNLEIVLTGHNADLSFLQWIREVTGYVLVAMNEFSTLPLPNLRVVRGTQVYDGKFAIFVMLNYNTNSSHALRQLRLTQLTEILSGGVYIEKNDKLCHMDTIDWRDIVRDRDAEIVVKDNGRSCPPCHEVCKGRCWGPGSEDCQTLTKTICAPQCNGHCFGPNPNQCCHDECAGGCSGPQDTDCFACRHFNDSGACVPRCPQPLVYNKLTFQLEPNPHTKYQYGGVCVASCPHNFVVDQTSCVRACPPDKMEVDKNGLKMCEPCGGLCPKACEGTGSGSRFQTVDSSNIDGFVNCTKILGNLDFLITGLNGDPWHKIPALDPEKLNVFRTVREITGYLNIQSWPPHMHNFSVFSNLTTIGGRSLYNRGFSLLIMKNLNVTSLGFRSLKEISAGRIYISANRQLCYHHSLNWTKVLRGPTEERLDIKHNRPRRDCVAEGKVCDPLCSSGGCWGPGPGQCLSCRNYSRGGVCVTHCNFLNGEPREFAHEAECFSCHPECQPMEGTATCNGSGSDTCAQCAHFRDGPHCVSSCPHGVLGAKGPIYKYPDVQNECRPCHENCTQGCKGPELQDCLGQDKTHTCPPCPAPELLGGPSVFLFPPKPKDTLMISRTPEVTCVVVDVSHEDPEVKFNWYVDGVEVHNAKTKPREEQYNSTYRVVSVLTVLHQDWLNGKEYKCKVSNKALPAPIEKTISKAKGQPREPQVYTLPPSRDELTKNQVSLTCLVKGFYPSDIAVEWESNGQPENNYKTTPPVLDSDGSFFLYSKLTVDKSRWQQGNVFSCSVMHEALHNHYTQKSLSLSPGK
- testDetails: SPR (Biacore), 25 C, mAb capture format
Value expressed in s⁻¹; do not type the unit.

Prompt: Output koff of H2M1829N (antibody, V domains shown, Hybridoma chimeric antibody: human variable domains, mouse IgG2 Fc (H2M prefix)) VH: EVQLVESGGGVVRPGGSLRLSCVASGFTFDDYGMSWVRQAPGKGLECVSGINWNGGSTDYADSVKGRFTISRDNAKNSLYLQMNSLRAEDTALYHCARDGGDWDYFDLWGRGTLVTVSS VL: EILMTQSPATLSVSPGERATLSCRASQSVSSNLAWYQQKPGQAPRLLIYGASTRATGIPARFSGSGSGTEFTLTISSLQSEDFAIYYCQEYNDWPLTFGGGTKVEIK
Completion: 8.61e-06

Others:
Prompt: For the binder H2M1930N (antibody, V domains shown, Hybridoma chimeric antibody: human variable domains, mouse IgG2 Fc (H2M prefix)) VH: EVQLVESGGGLVKPGGSLRLSCVASGFTFSSYNMNWVRQAPGKGLEWVSFISGSSNYIHYADSVKGRFTISRDNAKNALYLQMNSLRAEDTAVYYCARDDGDYDWFDPWGQGTLVTVSS VL: EIVLTQSPGTLSLSPGERATLSCRASQSVSSSYLAWYQQKPGQAPRLLIYGTSSRATGIPDRFSGSGSGTDFTLTISRLEPEDFAVYYCQQYDNSYTFGQGTKLEIK , report koff.
Completion: 8.27e-06
